biological target: brain AChE (rat cortex homogenate) (Rattus norvegicus); construct: homogenate was used as the resource of AChE; from tissue; host or cells: rat cortex homogenate; assay: biochemical
Sequence (P37136 32-614): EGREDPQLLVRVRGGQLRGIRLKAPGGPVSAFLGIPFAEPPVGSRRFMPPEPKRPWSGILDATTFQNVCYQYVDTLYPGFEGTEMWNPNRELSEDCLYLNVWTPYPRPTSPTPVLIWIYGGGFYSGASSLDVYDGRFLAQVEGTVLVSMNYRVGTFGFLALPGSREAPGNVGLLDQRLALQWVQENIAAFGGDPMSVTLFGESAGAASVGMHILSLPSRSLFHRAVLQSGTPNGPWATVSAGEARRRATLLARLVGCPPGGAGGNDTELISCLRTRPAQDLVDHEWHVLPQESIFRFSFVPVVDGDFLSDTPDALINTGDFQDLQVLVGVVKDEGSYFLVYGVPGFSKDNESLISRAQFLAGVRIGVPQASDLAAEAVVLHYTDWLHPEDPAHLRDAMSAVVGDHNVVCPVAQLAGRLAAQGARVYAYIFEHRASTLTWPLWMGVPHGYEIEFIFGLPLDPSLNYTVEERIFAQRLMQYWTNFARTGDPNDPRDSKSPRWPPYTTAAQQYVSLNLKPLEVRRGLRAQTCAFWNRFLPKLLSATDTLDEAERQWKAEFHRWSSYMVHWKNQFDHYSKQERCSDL
measurement.name: IC50

> print(dat)
            chemical.structure  measurement.name  value.reported
1  O=C(C=Cc1ccc(O)cc1)c1ccccc1              IC50         36.5 nM

---

target: brain AChE (rat cortex homogenate) (Rattus norvegicus); construct: homogenate was used as the resource of AChE; from tissue; host or cells: rat cortex homogenate; test: biochemical; settings: n = 3; rat cortex homogenate; read-out: AChE Inhibitory Activity (IC50, Mean ± SD)
measurement.name: IC50 (µM)

> print(dat)
                                   compound                               test.target  value.reported
1  O=C(C=Cc1ccc(OCCN2CCCC2)cc1)c1ccccc1 [PS8]  brain AChE (rat cortex homogenate) (Rattus norvegicus)          0.0327
2  O=C(C=Cc1ccc(OCCN2CCNCC2)cc1)c1ccccc1 [PS6]  brain AChE (rat cortex homogenate) (Rattus norvegicus)          0.0214
3  CN1CCN(CCOc2ccc(C=CC(=O)c3ccccc3)cc2)CC1 [PS10]  brain AChE (rat cortex homogenate) (Rattus norvegicus)          0.0153
4  CCN(CC)CCOc1ccc(C=CC(=O)c2ccccc2)cc1 [PS3]  brain AChE (rat cortex homogenate) (Rattus norvegicus)          0.0475
5  O=C(C=Cc1ccc(OCCN2CCOCC2)cc1)c1ccccc1 [PS7]  brain AChE (rat cortex homogenate) (Rattus norvegicus)          0.0227
6  O=C(C=Cc1ccc(OCCN2CCCCC2)cc1)c1ccccc1 [PS5]  brain AChE (rat cortex homogenate) (Rattus norvegicus)          0.0197
7  CN(CCOc1ccc(C=CC(=O)c2ccccc2)cc1)Cc1ccccc1 [PS4]  brain AChE (rat cortex homogenate) (Rattus norvegicus)          0.0488
8  O=C(C=Cc1ccc(OCCn2ccnc2)cc1)c1ccccc1 [PS9]  brain AChE (rat cortex homogenate) (Rattus norvegicus)          0.0263
9  CN(C)CCOc1ccc(C=CC(=O)c2ccccc2)cc1 [PS2]  brain AChE (rat cortex homogenate) (Rattus norvegicus)          0.0525
